system: IRAK3 (Homo sapiens, UniProt Q9Y616)
Construct: pseudokinase domain, residues 145–454
Sequence (Q9Y616 145-454): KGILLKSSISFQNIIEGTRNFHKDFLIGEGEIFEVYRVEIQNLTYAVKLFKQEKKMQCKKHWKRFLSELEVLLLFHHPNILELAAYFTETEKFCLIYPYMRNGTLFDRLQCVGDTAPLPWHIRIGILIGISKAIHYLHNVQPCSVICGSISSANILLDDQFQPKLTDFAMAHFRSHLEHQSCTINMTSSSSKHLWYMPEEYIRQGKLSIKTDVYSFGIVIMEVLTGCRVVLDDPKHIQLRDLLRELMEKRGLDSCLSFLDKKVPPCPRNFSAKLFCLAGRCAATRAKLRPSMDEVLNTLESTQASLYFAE
protocolSummary: thermal shift assay dose response with isothermal analysis at […]°C
assayReadout: Kd

Exam item: What Kd value was documented for this compound, Nc1ncnc2c1ncn2[C@@H]1O[C@H](COP(=O)(O)OP(=O)(O)OP(=O)(O)O)[C@@H](O)[C@H]1O ?
Marked response: ~196 µM

----------
system: IRAK2 (Homo sapiens, UniProt O43187)
Construct: pseudokinase domain, residues 192-507
Sequence (O43187 192-507): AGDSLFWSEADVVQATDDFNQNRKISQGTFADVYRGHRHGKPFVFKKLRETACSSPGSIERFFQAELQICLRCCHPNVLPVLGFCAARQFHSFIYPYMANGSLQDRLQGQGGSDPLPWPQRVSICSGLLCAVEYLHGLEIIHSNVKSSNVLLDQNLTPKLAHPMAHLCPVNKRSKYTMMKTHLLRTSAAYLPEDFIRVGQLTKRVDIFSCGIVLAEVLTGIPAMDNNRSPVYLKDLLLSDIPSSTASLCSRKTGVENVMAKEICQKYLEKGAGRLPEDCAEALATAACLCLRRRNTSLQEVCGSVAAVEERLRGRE
protocolSummary: thermal shift assay dose response with isothermal analysis at […]°C
assayReadout: Kd (µM)
Value expressed in µM; do not type the unit.

Exam item: What Kd value was documented for this molecule, Nc1ncnc2c1ncn2[C@@H]1O[C@H](COP(=O)(O)OP(=O)(O)OP(=O)(O)O)[C@@H](O)[C@H]1O ?
Marked response: 9.8

Hey, just so you know, these numbers are from paper PMC7955167.
